- Substrate: Cc1ccc(O)c(O)c1
- experimental_details: purified protein
- Format: biochemical, Tetranychus urticae
- condition_info: 0.1 M PBS pH 7.5, 25 °C, O2 co-substrate (air), Fe enzyme, kcat corrected for iron content
Lab note: compare Vmax against 0.5 µM/min. Equal or greater, write TRUE. Smaller, write FALSE.

Form field: Vmax at least 0.5 µM/min? Entry: TuDOG1 (Tetranychus urticae) (protein, signal peptide removed, N-terminal 6xHis kept, pJExpress 411, E. coli BL21(DE3), codon optimized (ATUM), 25-37 kDa) DVHRRGKFLPHDRTVINCASLNRKAHQHSSVLAPFTTEGPFFLPDDLKRSDITDGQKGIPLELTIKLTNAKDCTPISNFFIHAWQTNATGVYSGIDEDTAPLSGFRPTPVNRDRSLRGYQETDANGEVKFLTILPGWYSGRAIHIHIEVYAKDITDENKITYIGQFYFEHDFPLKLRKIYPYSTNTQRIIFNEQDYYYVHDHGDETTLDLKHNGAKFSSYATVAIDPTVTVHVQ
FALSE

Item TuDOG16 (Tetranychus urticae) (protein, signal peptide removed, N-terminal 6xHis kept, pJExpress 411, E. coli BL21(DE3), codon optimized (ATUM), 25-37 kDa) HSERPGKFLEHDRSIVNCARYKREANQHTCVLAPFATEGPYFLADDLERSDITDGQTGVNLDLNLKLTNAKDCSPLSGYFVHIWNANALGHYSGVQEFNKFPKQTFRPKPIYDTRWLRGYQVTNEDGEVNFKTIVPGWYYGRCLHIHVEVYSKNTTDTNAITYIGQLYFKRELPVQLKLVEPYSSNQNELKFNEQDKVFNGMHGNDTITELVFEENNAKTSFILALDPTVTTLTNGTVVN with Vmax of 0.5 µM/min or above?
FALSE

Item TuDOG7 (Tetranychus urticae) (protein) ERSIEILNHDATVIDCARYKREANQHKCVITPFTTEGPYFLPDDYERSDITDGYTGVNLNLTLLLTNAKDCSPLSNYYVHIWNANAMGHYSGVKEFNFFDHPTFRPKPINNLRFLRGYQITNEDGLVNFNTIIPGWYFGRCIHIHVEIYDKNTTDGHAVSYIGQLYFNREMPAALKLIDPYSQNNNELTLNDQDIVFALSRGSDTILELIPEGNGYSASYVLSIDPTVKVENSVLPFEDPRNVSFIEH with Vmax of 0.5 µM/min or above?
TRUE

Reported Vmax at or above 0.5 µM/min? TuDOG11 (Tetranychus urticae) (protein, signal peptide removed, N-terminal 6xHis kept, pJExpress 411, E. coli BL21(DE3), codon optimized (ATUM), 25-37 kDa) HLQRPGKFLPHDRSIVDCARYKREANQHTCVLAPFTTEGPYFLPDDLERSDITDGQTGVNLDLNLKLTNAKDCSPLSNYFVHVWQANALGHYSGVNELFPVGFRPKPISGERFLRGYQKTNEDGEVNFKTIIPGWYVGRCIHIHVEVYAKNNTDGNAVNYIGQLYFERDIPSSLRLVEPYSTNVNEITLNDSDGVYLLTHGNDTLIDLVPQESGFRTDYIVAIDPDVSIKYDWLDI
TRUE

Check the entry TuDOG15 (Tetranychus urticae) (protein) DHERPGKYLEHDSTVINCARYKREANQHSCVLAPYAVEGPYFLPDDLERSNLAEDKVGVSLDLAIRLVNSNDCTPLTNMFVHVWHADALGVYSGVPDLAELFVERMRQENKTLPPFWGPEGAYEGRRPGGPGGPGGPGGPGGPGDMEMPGRPTPVNNERFLRGYQVTNEAGEVNFKTIIPGWYTGRSLHIHVEVYSKNTTEPGEVNYIGQIFFKDDLPAELKLIEPYSLNQNILVLNPQDGIYNFAHGEQTKIQLENRETGYFGSMTFGINPNAH : does Vmax equal or exceed 0.5 µM/min?
TRUE
